# Tested on: Fibroblast
# testSummary: Multiplex assay against human fibroblast
# Format: toxicity, cell-based
# conditionsUsed: 24 h, 10 µM, compound concentration 10 uM, replicate 1
Param threshold (60%) applies to Population Apoptotic (%); output Condition met when value >= threshold, Condition not met when value < threshold.

Cc1c(CC(=O)O)c2cccnc2n1Cc1ccc(S(C)(=O)=O)cc1C(F)(F)F    Condition not met
Cc1noc(-c2ccc(-c3ccc(CC(=O)O)cc3)cc2)c1NC(=O)O[C@H](C)c1ccccc1Cl    Condition not met
CN1CCN(c2cc(-c3ccccc3)nc(N)n2)CC1    Condition not met
Cc1cccc(NC(=O)CN2CCC(c3ccccn3)CC2)c1.Cl.Cl    Condition met
N#Cc1cc(F)cc(-c2nc(-c3ccc(F)cn3)no2)c1    Condition met
COc1ccccc1N1CCN(C[C@@H](C(=O)NC(C)(C)C)c2ccccc2)CC1.Cl.Cl    Condition met
N#Cc1c(Oc2cccc(OS(=O)(=O)CCCC(F)(F)F)c2)cccc1C(F)(F)F    Condition not met
CN(C)C(=O)Cn1cc(-c2ccc(-c3cncc4ccccc34)cc2)cn1    Condition not met
COC[C@@H](c1ccc(C(F)(F)F)cc1)N1CCN(C2(C)CCN(C(=O)c3c(C)ncnc3C)CC2)C[C@@H]1C.O=C(O)/C=C\C(=O)O [VICRIVIROC MALEATE]    Condition met
CC(C)(C)c1cc(NC(=O)Nc2ccc(-c3cn4c(n3)sc3cc(OCCN5CCOCC5)ccc34)cc2)no1    Condition met

Req: Confirm if Population Apoptotic (%) reported for the compound Cc1cnc(-c2cc(N3CCN(C(=O)CCS(C)(=O)=O)CC3)ncc2Cl)c(C)c1 is 60% or above.
Resp: Condition not met

Req: Consider next the compound Cc1onc(-c2ccccc2Cl)c1C(=O)N(C)c1ccc(Cl)cc1 in the same way.
Resp: Condition not met

Req: Consider next the compound C[C@H](N)COC(=O)[C@@H](CCCCN)NC(=O)Cc1c(-c2ccc3ccccc3c2)[nH]c2c1ccc1ccccc12 in the same way.
Resp: Condition met

Req: Consider next the compound CC(C)COc1ccc(CNC(=O)N(Cc2ccc(F)cc2)C2CCN(C)CC2)cc1 in the same way.
Resp: Condition met

----------
# Test system: U2OS
# testSummary: Multiplex assay against U2OS
# Assay type: toxicity, cell-based
# conditionsUsed: human, 12 h, 1 µM, compound concentration 1 uM, replicate 2
metric: Population Hoechst High Intensity Objects (%)
Write down the numeric answer in % and omit the unit.

CCCOc1ccc2[nH]cc(C3=CCNCC3)c2n1.Cl    1
CC(C)COc1ccc(CNC(=O)N(Cc2ccc(F)cc2)C2CCN(C)CC2)cc1    0
Cl.NCCc1ccc(O)c(O)c1 [DOPAMINE HYDROCHLORIDE]    1
COc1ccccc1N1CCN(C[C@@H](C(=O)NC(C)(C)C)c2ccccc2)CC1.Cl.Cl    1
CCc1cc2cc(NS(=O)(=O)c3ccc(C#N)cc3)ccc2n(CC)c1=O    1

Req: What does the record list as Population Hoechst High Intensity Objects (%) for COC[C@@H](c1ccc(C(F)(F)F)cc1)N1CCN(C2(C)CCN(C(=O)c3c(C)ncnc3C)CC2)C[C@@H]1C.O=C(O)/C=C\C(=O)O [VICRIVIROC MALEATE] ?
Resp: 2

Req: Consider next the compound Cc1cnc(-c2cc(N3CCN(C(=O)CCS(C)(=O)=O)CC3)ncc2Cl)c(C)c1 in the same way.
Resp: 1

Req: Consider next the compound CN(C)C(=O)Cn1cc(-c2ccc(-c3cncc4ccccc34)cc2)cn1 in the same way.
Resp: 0

Req: Consider next the compound Cc1noc(-c2ccc(-c3ccc(CC(=O)O)cc3)cc2)c1NC(=O)O[C@H](C)c1ccccc1Cl in the same way.
Resp: 0

----------
# Test system: HEK-293T
# testSummary: Multiplex assay against HEK293T
# Assay type: toxicity, cell-based
# conditionsUsed: human, 12 h, 1 µM, compound concentration 1 uM, replicate 2
metric: Population Pyknosed Nuclei (%)
Write down the numeric answer in % and omit the unit.

Solved entries (count: 3):
CCc1cc2cc(NS(=O)(=O)c3ccc(C#N)cc3)ccc2n(CC)c1=O    14
N#Cc1cc(F)cc(-c2nc(-c3ccc(F)cn3)no2)c1    15
COc1ccccc1N1CCN(C[C@@H](C(=O)NC(C)(C)C)c2ccccc2)CC1.Cl.Cl    19

Req: What does the record list as Population Pyknosed Nuclei (%) for CC(C)c1noc(N2CCC(COc3ccc(-c4ccc(S(C)(=O)=O)cc4)nc3)CC2)n1 ?
Resp: 7

Req: Consider next the molecule Cc1noc(-c2ccc(-c3ccc(CC(=O)O)cc3)cc2)c1NC(=O)O[C@H](C)c1ccccc1Cl in the same way.
Resp: 17

Req: Consider next the molecule CC[C@@H](C)Nc1nc(C)nc2c(-c3ccc(OC)nc3C)c(C)nn12 in the same way.
Resp: 11

----------
# Test system: Fibroblast
# testSummary: Multiplex assay against human fibroblast
# Type: toxicity, cell-based
# conditionsUsed: 24 h, 10 µM, compound concentration 10 uM, replicate 2
metric: Population Mitochondria Different-Phenotype (%)
Write down the numeric answer in % and omit the unit.

Cc1cnc(-c2cc(N3CCN(C(=O)CCS(C)(=O)=O)CC3)ncc2Cl)c(C)c1    9
CCc1cc2cc(NS(=O)(=O)c3ccc(C#N)cc3)ccc2n(CC)c1=O    12
CCCOc1ccc2[nH]cc(C3=CCNCC3)c2n1.Cl    8

Next:
Req: What does the record list as Population Mitochondria Different-Phenotype (%) for CN[C@@H](C)C(=O)N[C@H](C(=O)N1CCC[C@H]1C(=O)Nc1snnc1-c1ccccc1)C1CCCCC1 ?
Resp: 22

----------
# Tested on: U2OS
# testSummary: Multiplex assay against U2OS
# Type: toxicity, cell-based
# conditionsUsed: human, 24 h, 1 µM, compound concentration 1 uM, replicate 2
Population Mitochondria Different-Phenotype (%) values by entry
Write down the numeric answer in % and omit the unit.

Cl.N=C(N)NC(=O)Cc1c(Cl)cccc1Cl [GUANFACINE HYDROCHLORIDE]    4
COc1cccc2c1c(NS(=O)(=O)c1ccc(Cl)s1)nn2Cc1cccc(CNC(=O)C(C)(C)O)c1    3
O=C1[C@H](Cc2ccc(O)cc2)N2C(=O)CCN(C(=O)NCc3ccccc3)[C@H]2CN1Cc1cccc2ccccc12    5
CN(C)C(=O)Cn1cc(-c2ccc(-c3cncc4ccccc34)cc2)cn1    6
CCCCC(=O)N(Cc1ccc(-c2ccccc2-c2nnn[nH]2)cc1)[C@H](C(=O)O)C(C)C    6
Cc1cccc(NC(=O)CN2CCC(c3ccccn3)CC2)c1.Cl.Cl    4

Req: # query: Population Mitochondria Different-Phenotype (%) | item CCCOc1ccc2[nH]cc(C3=CCNCC3)c2n1.Cl | system: U2OS
Resp: 3

Req: Consider next the compound O=C(NCCN1CCC(n2c(=O)[nH]c3cc(Cl)ccc32)CC1)c1ccc(F)cc1 [HALOPEMIDE] in the same way.
Resp: 3

Req: Consider next the compound Cc1noc(-c2ccc(-c3ccc(CC(=O)O)cc3)cc2)c1NC(=O)O[C@H](C)c1ccccc1Cl in the same way.
Resp: 3

----------
# System: HEK-293T
# testSummary: Multiplex assay against HEK293T
# Format: toxicity, cell-based
# conditionsUsed: human, 48 h, 10 µM, compound concentration 10 uM, replicate 1
Population Apoptotic (%) values by entry
Write down the numeric answer in % and omit the unit.

CC(=O)Nc1cccc2c1c(Sc1ccc(Cl)cc1)c(C)n2CC(=O)O [AZD1981]    37
Cc1sc2c(c1C)C(c1ccc(Cl)cc1)=N[C@@H](CC(=O)NCCCCCCCCNC(=O)COc1cccc3c1C(=O)N(C1CCC(=O)NC1=O)C3=O)c1nnc(C)n1-2 (stereo not given in full)    48
Cl.NCCc1ccc(O)c(O)c1 [DOPAMINE HYDROCHLORIDE]    30
Cc1cnc(-c2cc(N3CCN(C(=O)CCS(C)(=O)=O)CC3)ncc2Cl)c(C)c1    25
Br.CS(=O)(=O)Nc1c(O)ccc2c1CCCC2C1=NCCN1 (stereo not given)    34
CC(C)c1noc(N2CCC(COc3ccc(-c4ccc(S(C)(=O)=O)cc4)nc3)CC2)n1 [GSK-1292263]    32
CN(C)C(=O)Cn1cc(-c2ccc(-c3cncc4ccccc34)cc2)cn1    66
NCCc1cn(S(=O)(=O)c2c(Cl)nc3sccn23)c2ccccc12.O=C(O)C(=O)O    53

Req: # query: Population Apoptotic (%) | item COc1cccc2c1c(NS(=O)(=O)c1ccc(Cl)s1)nn2Cc1cccc(CNC(=O)C(C)(C)O)c1 | system: HEK-293T
Resp: 26

Req: Consider next the molecule COc1ccccc1N1CCN(C[C@@H](C(=O)NC(C)(C)C)c2ccccc2)CC1.Cl.Cl in the same way.
Resp: 50

----------
Population Fragmented Nuclei (%) values by entry
# Test system: U2OS
# testSummary: Multiplex assay against U2OS
# Type: toxicity, cell-based
# conditionsUsed: human, 48 h, 1 µM, compound concentration 1 uM, replicate 2
Write down the numeric answer in % and omit the unit.

COc1ccccc1N1CCN(C[C@@H](C(=O)NC(C)(C)C)c2ccccc2)CC1.Cl.Cl    16
CCCCC1=NC2(CCCC2)C(=O)N1Cc1ccc(-c2ccccc2-c2nnn[nH]2)cc1 [IRBESARTAN]    14
O=C(CCCc1ccccc1)Nc1nc2ccccc2c(=O)s1    19
Cc1cccc(NC(=O)CN2CCC(c3ccccn3)CC2)c1.Cl.Cl    17
COC[C@@H](c1ccc(C(F)(F)F)cc1)N1CCN(C2(C)CCN(C(=O)c3c(C)ncnc3C)CC2)C[C@@H]1C.O=C(O)/C=C\C(=O)O [VICRIVIROC MALEATE]    25

Next:
Req: What does the record list as Population Fragmented Nuclei (%) for Cc1noc(-c2ccc(-c3ccc(CC(=O)O)cc3)cc2)c1NC(=O)O[C@H](C)c1ccccc1Cl ?
Resp: 18
